Assay: Water solubility of protonated bile acids
Conditions: 0.1 M HCl, pH 1, simulated gastric fluid, thermodynamic from solid
quantity measured: solubility at 1 week (µM)
Answers are plain numbers, in µM.

Supply reported solubility at 1 week belonging to this molecule: "CC[C@H]1[C@@H](O)[C@@H]2[C@H](CC[C@]3(C)[C@@H]([C@H](C)CCC(=O)O)CC[C@@H]23)[C@@]2(C)CC[C@@H](O)C[C@@H]12" 9

###

Exercise: state measured STCMC: Surface Tension at CMC in water for each of the molecules provided.
Test: Critical micellar concentration by surface tension (maximum bubble-pressure)
Assay type: physicochemical
Conditions: at CMC in water

C[C@H](CCC(=O)O)[C@H]1CC[C@H]2[C@@H]3[C@@H](O)C[C@@H]4C[C@H](O)CC[C@]4(C)[C@H]3CC[C@]12C [UDCA] : 63.0 Dyne/cm
C[C@H](CCC(=O)O)[C@H]1CC[C@H]2[C@@H]3[C@H](O)C[C@@H]4C[C@H](O)CC[C@]4(C)[C@H]3CC[C@]12C [CDCA, chenodeoxycholic acid] : 55.6 Dyne/cm
CC[C@H]1[C@@H](O)C2C3CCC(C(C)CCOS(=O)(=O)[O-])[C@@]3(C)CCC2[C@@]2(C)CC[C@@H](O)C[C@@H]12.[Na+] (stereo partly shown) [INT-1103] : 47.9 Dyne/cm

Okay, now this molecule:
Identify measured STCMC: Surface Tension at CMC in water corresponding to CC[C@H]1[C@@H](O)[C@@H]2[C@H](CC[C@]3(C)[C@@H]([C@H](C)CCC(=O)O)CC[C@@H]23)[C@@]2(C)CC[C@@H](O)C[C@@H]12 [INT-747] 48.8 Dyne/cm
